The reported numbers originate from ChEMBL document CHEMBL1961873.

# reported inhibition; entries follow
Target: Inhibitor of nuclear factor kappa-B kinase subunit beta (Homo sapiens) (UniProt O14920);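 note: reported as mean inhibition, from the GSK PKIS screening set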
Sequence (O14920 whole entry): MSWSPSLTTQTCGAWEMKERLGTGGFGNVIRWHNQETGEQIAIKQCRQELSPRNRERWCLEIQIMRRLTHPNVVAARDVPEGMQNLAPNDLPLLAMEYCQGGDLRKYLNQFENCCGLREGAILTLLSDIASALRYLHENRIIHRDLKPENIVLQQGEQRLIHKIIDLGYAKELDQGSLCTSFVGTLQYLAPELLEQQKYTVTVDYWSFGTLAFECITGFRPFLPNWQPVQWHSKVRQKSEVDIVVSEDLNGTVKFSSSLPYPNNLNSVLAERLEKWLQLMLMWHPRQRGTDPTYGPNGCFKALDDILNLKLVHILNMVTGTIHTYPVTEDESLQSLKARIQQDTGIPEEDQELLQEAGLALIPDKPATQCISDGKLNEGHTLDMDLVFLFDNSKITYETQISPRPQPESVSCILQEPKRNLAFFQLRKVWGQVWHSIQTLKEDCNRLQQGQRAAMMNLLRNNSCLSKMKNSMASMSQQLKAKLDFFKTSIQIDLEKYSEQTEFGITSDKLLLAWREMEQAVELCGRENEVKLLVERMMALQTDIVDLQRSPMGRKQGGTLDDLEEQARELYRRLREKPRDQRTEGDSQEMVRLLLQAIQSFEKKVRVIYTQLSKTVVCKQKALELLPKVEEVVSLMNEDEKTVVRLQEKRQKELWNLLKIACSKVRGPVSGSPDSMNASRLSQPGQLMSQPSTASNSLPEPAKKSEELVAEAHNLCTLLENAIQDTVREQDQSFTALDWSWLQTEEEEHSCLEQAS
Conditions: at 1 µM

{"Cpd smiles": "COc1cc(N2CCN(C(C)C)CC2)ccc1Nc1nc(Nc2ccc(F)cc2C(=O)NC[C@@H](O)CO)c2cc[nH]c2n1", "inhibition [%]": 9.5}
{"Cpd smiles": "O=C1Nc2ccc(I)cc2C1=Cc1cc(Br)c(O)c(Br)c1", "inhibition [%]": 3.61}
{"Cpd smiles": "COc1cc(Nc2ncc3c(C)nc(-c4cccc(C(F)(F)F)c4)n3n2)cc(OC)c1OC", "inhibition [%]": 3.21}
{"Cpd smiles": "c1ccc(Oc2ccc(Nc3ncc(-c4ccccc4)o3)cc2)cc1", "inhibition [%]": -1.75}
{"Cpd smiles": "COc1cc(Nc2ncc(-c3ccccc3)o2)cc(OC)c1OC", "inhibition [%]": 4.06}
{"Cpd smiles": "CN(c1ccc(NC(=O)Nc2c(Cl)cccc2Cl)cc1)c1ccnc(Nc2cccc(CS(C)(=O)=O)c2)n1", "inhibition [%]": 2.65}
{"Cpd smiles": "CCc1cccc(CC)c1/C=C/c1cncc(C(=O)NC)c1", "inhibition [%]": 2.91}
{"Cpd smiles": "O=C(Nc1n[nH]c2nc(-c3ccc(O)cc3)c(Br)cc12)C1CC1", "inhibition [%]": 9.61}
{"Cpd smiles": "O=C(Nc1n[nH]c2cc(-c3ccccc3)ccc12)C1CC1", "inhibition [%]": 3.54}
{"Cpd smiles": "C/C(Nc1ccc(S(N)(=O)=O)cc1)=C1/C(=O)Nc2ccccc21", "inhibition [%]": 1.17}
